test: Solubility assay (kinetic solubility, PBS pH 7); type: physicochemical; settings: pH 7, aqueous buffer, kinetic from dmso stock, pH 7, PBS; read-out: Solubility
Positions of bridges follow the written chain, without caps; N, C: chain ends. Non-standard residues stand in square brackets, D forms with d. Residues, ends and D or L forms follow the SMILES beside them. R8 = C=CCCCCCC[C@@](C)(N)C(=O)O; Cba = N[C@@H](CC1CCC1)C(=O)O; S5 = C=CCCC[C@](C)(N)C(=O)O
Listing of entries alongside the reported solubility kinetic.

{"molecule": "CC(=O)N[C@@H](C)C(=O)N[C@@H](C)C(=O)N[C@@H](C)C(=O)N[C@@H](C)C(=O)N[C@@H](CC(C)C)C(=O)N[C@H](C(=O)N[C@@H](Cc1ccccc1)C(=O)N[C@]1(C)CCCCCCC=CCCC[C@@](C)(C(=O)N[C@@H](CO)C(=O)N[C@@H](C)C(=O)N[C@@H](C)C(N)=O)NC(=O)[C@H](CC2CCC2)NC(=O)[C@H](CCC(N)=O)NC(=O)[C@H](C)NC(=O)[C@H](Cc2c[nH]c3ccccc23)NC(=O)[C@H](Cc2ccc(O)cc2)NC(=O)[C@H](CCC(=O)O)NC1=O)[C@@H](C)O", "solubility kinetic [µM]": 24.7}
{"molecule": "CC(=O)N[C@@H](CC(C)C)C(=O)N[C@H](C(=O)N[C@@H](Cc1ccccc1)C(=O)N[C@]1(C)CCCCCCC=CCCC[C@@](C)(C(=O)N[C@@H](CO)C(=O)N[C@@H](C)C(=O)N[C@@H](C)C(N)=O)NC(=O)[C@H](CC2CCC2)NC(=O)[C@H](CC(C)C)NC(=O)[C@H](CCC(N)=O)NC(=O)[C@H](Cc2c[nH]c3ccccc23)NC(=O)[C@H](Cc2ccc(O)cc2)NC(=O)[C@H](CCCNC(=N)N)NC1=O)[C@@H](C)O [MP-193] (Ac-LTF[R8]RYWQL[Cba][S5]SAA-NH2; staple 4-11)", "solubility kinetic [µM]": 2}
